screen value reference
B1: TPTE2 peptide 92-107 (Phosphatidylinositol 3,4,5-trisphosphate 3-phosphatase TPTE2), 16-mer library wild type / TLN1 PTB (TLN1 Phosphotyrosine-binding (PTB) domain, residues 309-401) (parent)
chain 1: LADLIFTDSKLYIPLE
chain 2: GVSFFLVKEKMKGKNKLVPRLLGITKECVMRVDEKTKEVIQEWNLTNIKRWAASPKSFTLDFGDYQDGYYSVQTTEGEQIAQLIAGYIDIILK

# Variants of: B1
# assay.procedure: proteomic peptide phage display deep mutational scan (ProP-PD DMS): M13 P8 16-mer library selected against immobilised GST-tagged bait for four days (rounds), NGS of the eluted pools per day and pseudo-replica
# condition.info: with TLN1 PTB (TLN1 Phosphotyrosine-binding (PTB) domain, residues 309-401); bait immobilised on MaxiSorp plates (10 µg), library pre-cleared on GST, 2 h binding at 4 °C, five washes; one round per day, days 1-4; value from days 2 and 3; keep out of graded; scale: average fractional NGS count over selection days 2 and 3

item.sequence	screen value
chain 1 LADLIFTVSKLYIPLE	7.58e-05
chain 1 LADLIFTDSKYYIPLE	4.09e-05
chain 1 LADLIFTDSKAYIPLE	6.5e-05
chain 1 LADLIATDSKLYIPLE	0
chain 1 LADLIFTMSKLYIPLE	0
chain 1 LADLIFTDKKLYIPLE	0
chain 1 LADLIFTDSKLYIQLE	0
chain 1 LADLIFTDSKLLIPLE	0
